study.system: COVID-19 WT Mpro (Severe acute respiratory syndrome coronavirus 2)
Construct: The C-His6-tagged COVID-19 WT Mpro (NC_045512); His6 (C)
test.name: biochemical
run.conditions: WT Mpro 25 nM, substrate 25 μM, 30 min pre-incubation; several values in a cell = repeat determinations
assay.endpoint: pIC50
Numbers only, as −log10 of the molar value.

>  <molecule>
CC(C)(C)OC(=O)N1CCCC1(C)C(=O)N[C@H](C(=O)N1C[C@H]2[C@@H]([C@H]1C(=O)N[C@H](C#N)C[C@@H]1CCNC1=O)C2(C)C)C(C)(C)C (stereo partly drawn) [Compound 57]

>  <pIC50>
7.24

$$$$

I would be grateful if you could provide pIC50 for each of the following entries.
1. CC1(C)[C@@H]2[C@@H](C(=O)N[C@H](C#N)C[C@@H]3CCNC3=O)N(C(=O)[C@@H]3CCN3C(=O)C(F)(F)F)C[C@@H]21 [Compound 6]
2. CC(C)(C)[C@H](NC(=O)c1cc2ccccc2[nH]1)C(=O)N1C[C@H]2[C@@H]([C@H]1C(=O)N[C@H](C#N)C[C@@H]1CCNC1=O)C2(C)C [Compound 28]

[4.76, 6.14]

Taken from patent US11760722B2.
